All values here come from patent US12042481B2.

target: recombinant human 5-HT transporter (Homo sapiens)
Sequence (P31645 whole entry): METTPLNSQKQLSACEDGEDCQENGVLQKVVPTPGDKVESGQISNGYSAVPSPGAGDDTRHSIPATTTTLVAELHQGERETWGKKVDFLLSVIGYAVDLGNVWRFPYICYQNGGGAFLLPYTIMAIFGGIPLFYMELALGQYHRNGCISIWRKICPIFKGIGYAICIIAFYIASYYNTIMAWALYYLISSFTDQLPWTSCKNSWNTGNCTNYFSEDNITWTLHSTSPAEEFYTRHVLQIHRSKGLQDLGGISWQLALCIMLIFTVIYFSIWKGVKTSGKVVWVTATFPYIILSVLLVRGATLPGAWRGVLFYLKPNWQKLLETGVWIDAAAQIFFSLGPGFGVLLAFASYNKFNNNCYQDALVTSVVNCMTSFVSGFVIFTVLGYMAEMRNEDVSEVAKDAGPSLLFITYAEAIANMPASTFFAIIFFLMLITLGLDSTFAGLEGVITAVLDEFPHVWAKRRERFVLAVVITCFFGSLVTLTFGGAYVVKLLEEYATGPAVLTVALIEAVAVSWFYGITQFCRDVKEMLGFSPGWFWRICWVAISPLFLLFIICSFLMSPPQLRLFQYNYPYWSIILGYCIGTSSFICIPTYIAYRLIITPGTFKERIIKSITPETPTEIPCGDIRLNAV
assay remarks: Inhibition of [3H]serotonin uptake in HEK-293 cells transfected with the 5-HT uptake transporter
property label: IC50 (µM)
Just the number please, in µM, no unit attached.

Lookup: Quick check: IC50 of c1ccc2cc([C@]34CNC[C@H]3C4)ccc2c1 ?
Found: 0.083

* * *

target: recombinant human DA transporter (Homo sapiens)
Sequence (Q01959 whole entry): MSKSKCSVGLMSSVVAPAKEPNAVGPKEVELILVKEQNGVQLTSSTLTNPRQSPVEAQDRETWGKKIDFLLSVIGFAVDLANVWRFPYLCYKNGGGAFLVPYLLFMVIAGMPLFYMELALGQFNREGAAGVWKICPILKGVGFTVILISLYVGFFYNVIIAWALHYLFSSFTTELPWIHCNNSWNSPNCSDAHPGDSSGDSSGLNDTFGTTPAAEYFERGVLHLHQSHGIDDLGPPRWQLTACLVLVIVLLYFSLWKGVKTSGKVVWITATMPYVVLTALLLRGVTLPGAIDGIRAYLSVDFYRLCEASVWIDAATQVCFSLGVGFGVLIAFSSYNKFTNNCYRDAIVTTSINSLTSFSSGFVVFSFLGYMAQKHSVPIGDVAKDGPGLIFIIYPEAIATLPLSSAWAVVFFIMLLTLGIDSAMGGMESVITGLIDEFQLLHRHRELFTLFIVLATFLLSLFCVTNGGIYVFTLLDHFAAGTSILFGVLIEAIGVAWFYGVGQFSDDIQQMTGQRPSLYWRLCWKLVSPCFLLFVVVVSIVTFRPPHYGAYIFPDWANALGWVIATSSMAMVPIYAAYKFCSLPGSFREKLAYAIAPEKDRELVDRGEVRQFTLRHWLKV
assay remarks: Inhibition of [3H]dopamine uptake in CHO-K1 cells transfected with the DA uptake transporter
property label: IC50
I'd appreciate it if you wrote the number followed by its unit.

Lookup: Quick check: IC50 of c1ccc2cc([C@]34CNC[C@H]3C4)ccc2c1 ?
Found: 38 nM
